- TARGET_OR_TEST_SYSTEM: SV40 large T antigen (Tag) (Simian virus 40, UniProt P03070 1-708)
- Sequence (P03070 whole entry): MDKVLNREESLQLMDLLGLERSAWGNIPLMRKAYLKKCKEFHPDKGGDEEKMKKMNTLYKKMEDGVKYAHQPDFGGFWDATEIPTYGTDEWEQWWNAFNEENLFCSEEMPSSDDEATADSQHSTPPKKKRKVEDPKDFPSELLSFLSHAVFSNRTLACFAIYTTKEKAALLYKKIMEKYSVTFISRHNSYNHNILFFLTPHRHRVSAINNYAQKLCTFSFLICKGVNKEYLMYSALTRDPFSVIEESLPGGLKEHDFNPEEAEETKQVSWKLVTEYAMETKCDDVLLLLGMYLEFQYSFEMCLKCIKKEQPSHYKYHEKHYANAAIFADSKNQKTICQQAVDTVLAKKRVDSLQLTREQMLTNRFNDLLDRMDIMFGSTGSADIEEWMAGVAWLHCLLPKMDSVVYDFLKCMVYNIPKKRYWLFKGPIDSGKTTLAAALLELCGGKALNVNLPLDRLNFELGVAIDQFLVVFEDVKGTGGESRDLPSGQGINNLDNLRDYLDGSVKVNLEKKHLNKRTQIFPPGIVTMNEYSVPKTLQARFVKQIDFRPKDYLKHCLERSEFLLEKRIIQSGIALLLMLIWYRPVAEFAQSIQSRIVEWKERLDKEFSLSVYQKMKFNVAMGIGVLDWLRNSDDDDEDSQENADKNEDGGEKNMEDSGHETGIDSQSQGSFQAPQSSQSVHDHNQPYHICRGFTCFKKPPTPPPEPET
- ASSAY_PROCEDURE: DSF
Could you please report measured Kd for the items listed next?
Answers are plain numbers, in nM.

ssDNA(GAPDH) (ssDNA) DNA: CGACAGTCAGCCGCATCTTCTTTTGCGTCGCCAGCCGAGCCCTATAGTGAGTCGTAT    10

Query block: I am curious: what Kd value has been reported for ssDNA(Site2) (ssDNA) DNA: GCTCAGAGGCCGAGGCGGCCTCGGCCTCTGCATAAATAAAAAAAATTAGTCAGCCAT ?
Result block: 50
